Known mass density of a selection of molecules
# assay_text: xn = mol fraction of the nth substance listed
# test_parameters: 308.15 K; 100 kPa; Liquid; Vibrating tube method; x1 = 0.25
Write the value in kg/m3 as a bare number.

Example entries and their recorded answers appear below.
{"molecule": "CCCCCCCC[P+](CC)(CC)CC.O=[N+]([O-])c1cn[n-]c1 [triethyloctylphosphonium 4-nitropyrazolide] + CCCCCC[n+]1ccn(C)c1.O=S(=O)([N-]S(=O)(=O)C(F)(F)F)C(F)(F)F", "quantity_unit": "kg/m3", "mass density": 1275.9}
{"molecule": "CCCCCCn1cc[n+](C)c1C.O=[N+]([O-])c1cn[n-]c1 [1-hexyl-2,3-dimethylimidazolium 4-nitropyrazolide] + CCCCCCCCCCCCCC[P+](CCCCCC)(CCCCCC)CCCCCC.O=S(=O)([N-]S(=O)(=O)C(F)(F)F)C(F)(F)F", "quantity_unit": "kg/m3", "mass density": 1063.9}
{"molecule": "CCCCCCCC[P+](CC)(CC)CC.O=[N+]([O-])c1cn[n-]c1 [triethyloctylphosphonium 4-nitropyrazolide] + CCCCCCn1cc[n+](C)c1C.O=S(=O)([N-]S(=O)(=O)C(F)(F)F)C(F)(F)F", "quantity_unit": "kg/m3", "mass density": 1269.7}

Query :: May I ask what mass density has been recorded for CCCCCCn1cc[n+](C)c1.O=[N+]([O-])c1cn[n-]c1 [1-hexyl-3-methylimidazolium 4-nitropyrazolide] + CCCCCCCCCCCCCC[P+](CCCCCC)(CCCCCC)CCCCCC.O=S(=O)([N-]S(=O)(=O)C(F)(F)F)C(F)(F)F ?
Result :: 1063.8

====

# assay_text: xn = mol fraction of the nth substance listed
# test_parameters: 288.15 K; 100 kPa; Liquid; Vibrating tube method; x1 = 0.25
reported_property: mass density (kg/m3)
Write the value in kg/m3 as a bare number.

{"compound": "CCCCCCCC[P+](CC)(CC)CC.O=[N+]([O-])c1cn[n-]c1 [triethyloctylphosphonium 4-nitropyrazolide] + CCCCCCn1cc[n+](C)c1C.O=S(=O)([N-]S(=O)(=O)C(F)(F)F)C(F)(F)F", "mass density [kg/m3]": 1285.9}

Query :: May I ask what mass density has been recorded for CCCCCCn1cc[n+](C)c1C.O=[N+]([O-])c1cn[n-]c1 [1-hexyl-2,3-dimethylimidazolium 4-nitropyrazolide] + CCCCCCCCCCCCCC[P+](CCCCCC)(CCCCCC)CCCCCC.O=S(=O)([N-]S(=O)(=O)C(F)(F)F)C(F)(F)F ?
Result :: 1078.2

Query :: And CCCCCCCC[P+](CC)(CC)CC.O=[N+]([O-])c1cn[n-]c1 [triethyloctylphosphonium 4-nitropyrazolide] + CCCCCC[n+]1ccn(C)c1.O=S(=O)([N-]S(=O)(=O)C(F)(F)F)C(F)(F)F ?
Result :: 1292.3

Query :: And CCCCCCn1cc[n+](C)c1.O=[N+]([O-])c1cn[n-]c1 [1-hexyl-3-methylimidazolium 4-nitropyrazolide] + CCCCCCCCCCCCCC[P+](CCCCCC)(CCCCCC)CCCCCC.O=S(=O)([N-]S(=O)(=O)C(F)(F)F)C(F)(F)F ?
Result :: 1078.2

====

# test_parameters: 298.15 K; 100 kPa; Liquid; Vibrating tube method
reported_property: mass density (kg/m3)
Write the value in kg/m3 as a bare number.

Example entries and their recorded answers appear below.
{"molecule": "CCn1cc[n+](C)c1.O=S(=O)([N-]S(=O)(=O)C(F)(F)F)C(F)(F)F", "reported_property": "mass density", "numeric_result": 1518.9}
{"molecule": "CCCCCCCC[P+](CC)(CC)CC.O=[N+]([O-])c1cn[n-]c1 [triethyloctylphosphonium 4-nitropyrazolide]", "reported_property": "mass density", "numeric_result": 1031.5}
{"molecule": "CCCCCCn1cc[n+](C)c1C.O=S(=O)([N-]S(=O)(=O)C(F)(F)F)C(F)(F)F", "reported_property": "mass density", "numeric_result": 1359.5}

Query :: May I ask what mass density has been recorded for "CCCCCC[n+]1ccn(C)c1.O=S(=O)([N-]S(=O)(=O)C(F)(F)F)C(F)(F)F" ?
Result :: 1371.9

Query :: And "CCCC[n+]1ccn(C)c1.O=S(=O)([N-]S(=O)(=O)C(F)(F)F)C(F)(F)F" ?
Result :: 1436.8
